All figures here come from paper PMC8119466.

target: recombinant PRL-1 (Homo sapiens, UniProt Q93096); construct: 6xHis (N, cleaved yes); made in house; host or cells: E. coli One Shot BL21 Star; assay: In vitro phosphatase assay (DiFMUP hydrolysis), PRL-1; type: biochemical; conditions: FDA-approved drug screen; compared to DMSO; also: test concentration or dose not given here
Sequence (Q93096 whole entry): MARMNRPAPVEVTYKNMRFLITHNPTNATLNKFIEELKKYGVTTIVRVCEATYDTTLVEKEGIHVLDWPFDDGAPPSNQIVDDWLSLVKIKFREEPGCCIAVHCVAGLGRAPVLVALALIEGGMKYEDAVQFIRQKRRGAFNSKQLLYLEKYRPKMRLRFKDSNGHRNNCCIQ
Where a name gives a salt, the structure may show the parent alone.
measured.endpoint: % Phosphatase Activity (compared to DMSO) PRL-1 (%)

INSERT INTO results (compound, unit_descriptor, assay_value) VALUES
  ('Cc1nc(NC(=O)N2CCC[C@H]2C(N)=O)sc1-c1ccnc(C(C)(C)C(F)(F)F)c1 [BYL719]', '%', 89),
  ('CC[C@H]1OC(=O)[C@H](C)[C@@H](O[C@H]2C[C@@](C)(OC)[C@@H](O)[C@H](C)O2)[C@H](C)[C@@H](O[C@@H]2O[C@H](C)C[C@H](N(C)C)[C@H]2O)[C@](C)(O)C[C@@H](C)[C@@H]2N[C@@H](COCCOC)O[C@H]([C@H]2C)[C@]1(C)O [Dirithromycin]', '%', 90),
  ('CN(C)CCC(c1ccccc1)c1ccccn1 (centres unmarked) [Pheniramine Maleate]', '%', 98),
  ('Cn1c(=O)cc(N2CCC[C@@H](N)C2)n(Cc2ccccc2C#N)c1=O [Alogliptin]', '%', 112),
  ('CCCCCCCCCCCC1=C(O)C(=O)C=C(O)C1=O [Embelin, reference compound]', '%', 40),
  ('CC(C)(C)c1nc(-c2cccc(NS(=O)(=O)c3c(F)cccc3F)c2F)c(-c2ccnc(N)n2)s1 [Dabrafenib (GSK2118436)]', '%', 81),
  ('CO/N=C(\C(=O)N[C@@H]1C(=O)N2C(C(=O)O)=C(COC(N)=O)CS[C@H]12)c1ccco1 [Cefuroxime sodium]', '%', 96),
  ('C=CCc1cc(OC)c(O)c(C(=O)NCCO)c1 [Alibendol]', '%', 90),
  ('COc1ccc(CC2c3cc(OC)c(OC)cc3CC[N+]2(C)CCC(=O)OCCCCCOC(=O)CC[N+]2(C)CCc3cc(OC)c(OC)cc3C2Cc2ccc(OC)c(OC)c2)cc1OC (centres unmarked) [Atracurium Besylate]', '%', 99),
  ('COc1c(C)c2c(c(O)c1C/C=C(\C)CCC(=O)OCCN1CCOCC1)C(=O)OC2 [Mycophenolate Mofetil]', '%', 131),
  ('C[C@H](N[C@@H](CCc1ccccc1)C(=O)O)C(=O)N1CCC[C@H]1C(=O)O.O.O [Enalaprilat Dihydrate]', '%', 102),
  ('CN(C)Cc1c(C(=O)NCCOc2ccc(C(=O)NO)cc2)oc2ccccc12 [PCI-24781 (Abexinostat)]', '%', 100),
  ('C[C@]12CCC3=C4CCC(=O)C=C4CC[C@H]3[C@@H]1CC[C@@]2(O)CC#N [Dienogest]', '%', 100),
  ('COc1ccc(Cl)cc1C(=O)NCCc1ccc(S(=O)(=O)NC(=O)NC2CCCCC2)cc1 [Glyburide]', '%', 104);
